B1: MED27 (parent)
chain: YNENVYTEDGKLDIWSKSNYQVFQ

- Variants of: B1
- Assay Method Text: protein stability index of a GFP-peptide fusion (GPS, HEK-293T) (PSI 1-6); higher = more stable;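 also: lentivirally expressed fusions sorted by FACS into six bins by GFP to DsRed ratio, PSI derived from sequencing read proportions per bin multiplied by bin number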
- Run Parameters: c terminus: a fixed tail appended
Decide using protein stability index: a value greater than or equal to 2 is True, a smaller one is False.

Biosequence | Label Value
YNENVYTEDMKLDIWSKSNYQVFQ [G10M] | True

QUERY: Threshold query (protein stability index >= 2) on YNENVYTEDGKLDIWSKGNYQVFQ [S18G]
RESULT: False

QUERY: Threshold query (protein stability index >= 2) on YNENVYTEDGKLDIWSKTNYQVFQ [S18T]
RESULT: True

QUERY: Threshold query (protein stability index >= 2) on YNENVYTEDGKLDIWSKSDYQVFQ [N19D]
RESULT: True

QUERY: Threshold query (protein stability index >= 2) on YNENVYTEDGKMDIWSKSNYQVFQ [L12M]
RESULT: True

QUERY: Threshold query (protein stability index >= 2) on YNENVYNEDGKLDIWSKSNYQVFQ [T7N]
RESULT: True

Origin of the recorded values: the supplement of paper PMC10567573
